target: Poly [ADP-ribose] polymerase 1 (Homo sapiens, UniProt P09874)
Sequence (P09874 whole entry): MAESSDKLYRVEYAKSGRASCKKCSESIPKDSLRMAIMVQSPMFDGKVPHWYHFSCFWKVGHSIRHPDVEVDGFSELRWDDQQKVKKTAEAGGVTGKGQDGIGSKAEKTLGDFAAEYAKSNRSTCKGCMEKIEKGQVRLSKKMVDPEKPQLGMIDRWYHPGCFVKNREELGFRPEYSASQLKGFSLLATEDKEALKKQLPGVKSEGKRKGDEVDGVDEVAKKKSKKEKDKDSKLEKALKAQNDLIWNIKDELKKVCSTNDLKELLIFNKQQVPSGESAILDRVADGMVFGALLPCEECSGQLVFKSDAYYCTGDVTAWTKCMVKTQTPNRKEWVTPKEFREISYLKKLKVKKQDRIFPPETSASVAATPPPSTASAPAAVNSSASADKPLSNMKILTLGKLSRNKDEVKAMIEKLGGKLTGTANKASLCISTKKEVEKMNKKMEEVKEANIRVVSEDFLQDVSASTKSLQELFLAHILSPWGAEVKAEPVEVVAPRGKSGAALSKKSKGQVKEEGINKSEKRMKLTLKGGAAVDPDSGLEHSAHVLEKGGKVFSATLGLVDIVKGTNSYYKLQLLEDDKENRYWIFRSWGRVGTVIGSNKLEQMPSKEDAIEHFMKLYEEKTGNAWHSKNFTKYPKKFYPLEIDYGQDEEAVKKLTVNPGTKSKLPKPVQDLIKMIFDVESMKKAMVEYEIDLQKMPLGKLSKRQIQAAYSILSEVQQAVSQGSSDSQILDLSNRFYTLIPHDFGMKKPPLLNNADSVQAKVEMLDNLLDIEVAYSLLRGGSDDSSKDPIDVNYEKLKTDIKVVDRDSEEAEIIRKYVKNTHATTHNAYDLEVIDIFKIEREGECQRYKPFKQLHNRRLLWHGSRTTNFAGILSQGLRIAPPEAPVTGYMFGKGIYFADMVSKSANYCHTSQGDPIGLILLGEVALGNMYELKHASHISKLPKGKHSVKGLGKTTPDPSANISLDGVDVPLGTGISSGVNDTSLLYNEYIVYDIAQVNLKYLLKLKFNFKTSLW
pIC50: −log10 of the molar value.
readout kind: pIC50

{"columns": ["molecule", "readout kind", "readout number"],
 "data": [
  ["O=c1[nH]cc(-c2ccccc2)c2ccccc12", "pIC50", 6.05],
  ["O=c1[nH]ccc2c(Br)cccc12", "pIC50", 6.57],
  ["CCc1cc2cc(C(CCN3CCCCC3)Cc3ccc4c(c3)OCCO4)ccc2[nH]c1=O (stereo unspecified)", "pIC50", 8.04],
  ["NC(=O)c1cccc(C2CO2)c1 (stereo unspecified)", "pIC50", 6.00],
  ["NC(=O)c1cccc2[nH]cnc12", "pIC50", 6.62],
  ["O=c1[nH]cnc2ccccc12", "pIC50", 4.80]
]}
